# viability, T/C values compiled below
System: 616215-338-R-J1-PDC complex spheroid viability
run_description: Anticancer human tumor 616215-338-R-J1-PDC patient-derived colon adenocarcinoma cell line growth inhibition [RAS]
condition: second compound 0.03 µM; first compound 0.0316 µM; stronger effect = lower value
Kindly provide the numeric value in % only, without the unit symbol.

Some entries whose results are on file:
CCC(CC)c1cc(NC2CCC(N)C2)n2nccc2n1 (stereo not drawn) + CCn1c(-c2cccnc2C(C)OC)c2c3cc(ccc31)N1CCOC(CC(NC(=O)C(C(C)C)N(C)C(=O)C3(F)CCN(C(=O)C#CC(C)(C)N(C)C)CC3)C(=O)N3CCCC(N3)C(=O)OCC(C)(C)C2)C1 ... 101
C=CC(=O)Nc1cc(Nc2nccc(-c3cn(C)c4ccccc34)n2)c(OC)cc1N(C)CCN(C)C + CCn1c(-c2cc(N3CCN(C)CC3)cnc2C(C)OC)c2c3cc(ccc31)-c1csc(n1)CC(NC(=O)C1CC1C)C(=O)N1CCCC(N1)C(=O)OCC(C)(C)C2 ... 48.4
O=C(c1ccc(F)c(F)c1Nc1ccc(I)cc1F)N1CC(O)([C@@H]2CCCCN2)C1 + CCn1c(-c2cccnc2C(C)OC)c2c3cc(ccc31)N1CCOC(CC(NC(=O)C(C(C)C)N(C)C(=O)C3(F)CCN(C(=O)C#CC(C)(C)N(C)C)CC3)C(=O)N3CCCC(N3)C(=O)OCC(C)(C)C2)C1 ... 61.8
Cc1nc(N2CCC3(CC2)COC(C)C3N)c(CO)nc1Sc1ccnc(N)c1Cl (stereo not drawn) + CCn1c(-c2cccnc2C(C)OC)c2c3cc(ccc31)N1CCOC(CC(NC(=O)C(C(C)C)N(C)C(=O)C3(F)CCN(C(=O)C#CC(C)(C)N(C)C)CC3)C(=O)N3CCCC(N3)C(=O)OCC(C)(C)C2)C1 ... 116
NC1c2ccccc2OC12CCN(c1cnc3c(N4CCCc5ncccc54)n[nH]c3n1)CC2 (stereo not drawn) + CCn1c(-c2cccnc2C(C)OC)c2c3cc(ccc31)N1CCOC(CC(NC(=O)C(C(C)C)N(C)C(=O)C3(F)CCN(C(=O)C#CC(C)(C)N(C)C)CC3)C(=O)N3CCCC(N3)C(=O)OCC(C)(C)C2)C1 ... 106
CC(=O)OC12COC1CC(O)C1(C)C(=O)C(O)C3=C(C)C(OC(=O)C(O)C(NC(=O)OC(C)(C)C)c4ccccc4)CC(O)(C(OC(=O)c4ccccc4)C21)C3(C)C (stereo not drawn) + CCn1c(-c2cc(N3CCN(C)CC3)cnc2C(C)OC)c2c3cc(ccc31)-c1csc(n1)CC(NC(=O)C1CC1C)C(=O)N1CCCC(N1)C(=O)OCC(C)(C)C2 ... 15.6

GET /values?item= CC(C)NCC(C(=O)N1CCN(c2ncnc3c2C(C)CC3O)CC1)c1ccc(Cl)cc1 (stereo not drawn) + CCn1c(-c2cc(N3CCN(C)CC3)cnc2C(C)OC)c2c3cc(ccc31)-c1csc(n1)CC(NC(=O)C1CC1C)C(=O)N1CCCC(N1)C(=O)OCC(C)(C)C2 &system= 616215-338-R-J1-PDC complex spheroid viability returns viability, T/C: 50.8

Record CC(C)n1nc(-c2ccc3oc(N)nc3c2)c2c(N)ncnc21 + CCn1c(-c2cc(N3CCN(C)CC3)cnc2C(C)OC)c2c3cc(ccc31)-c1csc(n1)CC(NC(=O)C1CC1C)C(=O)N1CCCC(N1)C(=O)OCC(C)(C)C2 / 616215-338-R-J1-PDC complex spheroid viability, viability, T/C recorded as 39

* * *

Overview of recorded viability, T/C for various compounds
System: 616215-338-R-J1-PDC complex spheroid viability
run_description: Anticancer human tumor 616215-338-R-J1-PDC cell line growth inhibition [RAS];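 further: spheroids exposed to agents for seven days before viability readout; 100% = DMSO vehicle control viability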
condition: compound 0.0316 µM; stronger effect = lower value

NC1c2ccccc2OC12CCN(c1cnc3c(N4CCCc5ncccc54)n[nH]c3n1)CC2 (centres undefined) ... 114% [middle of 4 runs]
Nc1ccn(C2OC(CO)C(O)C2(F)F)c(=O)n1 (centres undefined) ... 29.4% [middle of 4 runs]
CC1(O)CCCC1n1c(=O)c(C(F)F)cc2cnc(NC3CCN(S(C)(=O)=O)CC3)nc21 (centres undefined) ... 112% [middle of 4 runs]
C[C@@H](NC(=O)c1ncnc(N)c1Cl)c1ncc(C(=O)Nc2cc(C(F)(F)F)c(Cl)cn2)s1 ... 102% [middle of 4 runs]
CC(=O)OC12COC1CC(O)C1(C)C(=O)C(O)C3=C(C)C(OC(=O)C(O)C(NC(=O)OC(C)(C)C)c4ccccc4)CC(O)(C(OC(=O)c4ccccc4)C21)C3(C)C (centres undefined) ... 27.8% [middle of 4 runs]

In plain terms, C=CC(=O)N1CCN(c2nc(OCC3CCCN3C)nc3c(F)c(-c4nc(N)cc(C)c4C(F)(F)F)c(Cl)cc23)C(C)C1 (centres undefined) has a documented viability, T/C of 99.4% [middle of 12 runs]

Please fill in: viability, T/C reported for O=C(c1ccc(F)c(F)c1Nc1ccc(I)cc1F)N1CC(O)([C@@H]2CCCCN2)C1 = 81.5% [middle of 4 runs]

Entry under test: CCC(CC)c1cc(NC2CCC(N)C2)n2nccc2n1 (centres undefined) . Its viability, T/C was 109% [middle of 4 runs]

Looking up C#Cc1c(F)ccc2cc(O)cc(-c3ncc4c(N5CC6CCC(C5)N6)nc(OCC56CCCN5CC(F)C6)nc4c3F)c12 (centres undefined) , I see its viability, T/C listed as 107% [middle of 8 runs]

The recorded viability, T/C for entry CC(Nc1ccc2c(c1)OCCn1cc(N3C(=O)OCC3C(F)F)nc1-2)C(N)=O (centres undefined) equals 111% [middle of 4 runs]

Recorded result, CCN1CCN(Cc2ccc(Nc3ncc(F)c(-c4cc(F)c5nc(C)n(C(C)C)c5c4)n3)nc2)CC1 , viability, T/C: 113% [middle of 4 runs]

Record C=CC(=O)Nc1cc(Nc2nccc(-c3cn(C)c4ccccc34)n2)c(OC)cc1N(C)CCN(C)C . Reported viability, T/C: 103% [middle of 4 runs]

CC(C)n1nc(-c2ccc3oc(N)nc3c2)c2c(N)ncnc21 yielded viability, T/C of 110% [middle of 4 runs]

response.value for CC(C)NCC(C(=O)N1CCN(c2ncnc3c2C(C)CC3O)CC1)c1ccc(Cl)cc1 (centres undefined) (field: viability, T/C) = 105% [middle of 4 runs]

* * *

Tested on: 616215-338-R-J1-PDC complex spheroid viability
run_description: Anticancer human tumor 616215-338-R-J1-PDC cell line growth inhibition [RAS];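 further: spheroids exposed to agents for seven days before viability readout; 100% = DMSO vehicle control viability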
condition: compound 0.1 µM; stronger effect = lower value
viability, T/C by entry:

CC(=O)OC12COC1CC(O)C1(C)C(=O)C(O)C3=C(C)C(OC(=O)C(O)C(NC(=O)OC(C)(C)C)c4ccccc4)CC(O)(C(OC(=O)c4ccccc4)C21)C3(C)C (stereo unspecified) ... 21% [middle of 4 runs]
CC(C)NCC(C(=O)N1CCN(c2ncnc3c2C(C)CC3O)CC1)c1ccc(Cl)cc1 (stereo unspecified) ... 100% [middle of 4 runs]
C#Cc1c(F)ccc2cc(O)cc(-c3ncc4c(N5CC6CCC(C5)N6)nc(OCC56CCCN5CC(F)C6)nc4c3F)c12 (stereo unspecified) ... 107% [middle of 8 runs]
C[C@@H](NC(=O)c1ncnc(N)c1Cl)c1ncc(C(=O)Nc2cc(C(F)(F)F)c(Cl)cn2)s1 ... 110% [middle of 4 runs]
C=CC(=O)N1CCN(c2nc(OCC3CCCN3C)nc3c(F)c(-c4nc(N)cc(C)c4C(F)(F)F)c(Cl)cc23)C(C)C1 (stereo unspecified) ... 102% [middle of 12 runs]

The reported viability, T/C of the compound CC1(O)CCCC1n1c(=O)c(C(F)F)cc2cnc(NC3CCN(S(C)(=O)=O)CC3)nc21 (stereo unspecified) was 103% [middle of 4 runs]

viability, T/C in this record for CC(C)n1nc(-c2ccc3oc(N)nc3c2)c2c(N)ncnc21 : 75.2% [middle of 4 runs]

In plain terms, O=C(c1ccc(F)c(F)c1Nc1ccc(I)cc1F)N1CC(O)([C@@H]2CCCCN2)C1 has a documented viability, T/C of 41.5% [middle of 4 runs]

GET /value?item= Nc1ccn(C2OC(CO)C(O)C2(F)F)c(=O)n1 (stereo unspecified) &field=viability, T/C returns 16.2% [middle of 4 runs]

The recorded viability, T/C for entry C=CC(=O)Nc1cc(Nc2nccc(-c3cn(C)c4ccccc34)n2)c(OC)cc1N(C)CCN(C)C equals 105% [middle of 4 runs]

Recorded result, CC(Nc1ccc2c(c1)OCCn1cc(N3C(=O)OCC3C(F)F)nc1-2)C(N)=O (stereo unspecified) , viability, T/C: 108% [middle of 4 runs]

* * *

Overview of reported viability, T/C across a group of compounds:
Tested on: 616215-338-R-J1-PDC complex spheroid viability
run_description: Anticancer human tumor 616215-338-R-J1-PDC cell line growth inhibition [RAS];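 further: spheroids exposed to agents for seven days before viability readout; 100% = DMSO vehicle control viability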
condition: second compound 0.003 µM; first compound 0.03 µM; stronger effect = lower value
Text: RAS pathway inhibitors in Combinations in Complex Spheroids A high-throughput screen of multi-cell type tumor spheroids was designed to identify active combinations of RAS pathway inhibitors and targeted small molecules. Complex spheroids include a stromal component modeled by human endothelial cells (HUVEC) and fibroblasts modeled by human mesenchymal stem cells (MSCs). […] Compounds. […] If the clinical Cmax for an agent had not been determined, the highest concentration tested was 10 microM. […]
The reply should contain only the number, in %.

Answered cases to consult:
CCc1c2c(nc3ccc(O)cc13)-c1cc3c(c(=O)n1C2)COC(=O)[C@]3(O)CC + CCn1c(-c2cccnc2C(C)OC)c2c3cc(ccc31)N1CCOC(CC(NC(=O)C(C(C)C)N(C)C(=O)C3(F)CCN(C(=O)C#CC(C)(C)N(C)C)CC3)C(=O)N3CCCC(N3)C(=O)OCC(C)(C)C2)C1 ... 35.8
CCc1c2c(nc3ccc(O)cc13)-c1cc3c(c(=O)n1C2)COC(=O)[C@]3(O)CC + CCn1c(-c2cc(N3CCN(C)CC3)cnc2C(C)OC)c2c3cc(ccc31)-c1csc(n1)CC(NC(=O)C1CC1C)C(=O)N1CCCC(N1)C(=O)OCC(C)(C)C2 ... 23.5
CC1(C)CCC(Nc2ncc(C(F)(F)F)c(-c3c[nH]c4c(P(C)(C)=O)c(C#N)ccc34)n2)CN1 (centres undefined) + CCn1c(-c2cc(N3CCN(C)CC3)cnc2C(C)OC)c2c3cc(ccc31)-c1csc(n1)CC(NC(=O)C1CC1C)C(=O)N1CCCC(N1)C(=O)OCC(C)(C)C2 ... 37

Now for a further compound.
Sample CC1(C)CCC(Nc2ncc(C(F)(F)F)c(-c3c[nH]c4c(P(C)(C)=O)c(C#N)ccc34)n2)CN1 (centres undefined) + CCn1c(-c2cccnc2C(C)OC)c2c3cc(ccc31)N1CCOC(CC(NC(=O)C(C(C)C)N(C)C(=O)C3(F)CCN(C(=O)C#CC(C)(C)N(C)C)CC3)C(=O)N3CCCC(N3)C(=O)OCC(C)(C)C2)C1 ; viability, T/C observed: 39.3

These data points were gathered from PubChem BioAssay AID2060898.
